Provide the recorded pIC50 for the entries that follow.
Test system: NCI-H358
Assay: Antiproliferative activity against human NCI-H358 cells assessed as inhibition of cell proliferation incubated for 7 days by celltiter-glo 3D assay
Type: functional, cell-based
Settings: NCI-H358, 168 h
One number for each entry, as −log10 of the molar value.

>>> numeric_readout("COc1cc2nc(C)nc(N[C@H](C)c3cc(N)cc(C(F)(F)F)c3)c2cc1OCC1(CN(C)C(=O)C2CCN(C3CCC(Nc4cccc5c4C(=O)N(C4CCC(=O)NC4=O)C5=O)CC3)CC2)CC1 (stereo partly drawn)")
7.29
>>> numeric_readout("COc1cc2nc(C)nc(N[C@H](C)c3cc(N)cc(C(F)(F)F)c3)c2cc1OCC1(CN(C)C(=O)C2CCN(C(=O)C3CCN(c4ccc5c(c4)C(=O)N(C4CCC(=O)NC4=O)C5=O)CC3)CC2)CC1 (stereo partly drawn)")
7.08

Turning now to a further compound:
Record request: pIC50 value, item COc1cc2nc(C)nc(N[C@H](C)c3cc(N)cc(C(F)(F)F)c3)c2cc1OCC1(CN(C)C(=O)CCCCCCNc2ccc(F)c3c2C(=O)N(C2CCC(=O)NC2=O)C3=O)CC1 (stereo partly drawn) 7.64
